test: chemical genetic growth profiling, strain panel (AID 1159580);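 further: tested at 20 µM; growth read once vehicle control cultures reached saturation at 30 °C; 1 = growth at the plate median or of vehicle wells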; settings: S. cerevisiae deletion strains, growth OD, locus YDR162C, strain NBP2
The campaign covered roughly 5,500 compounds. About 2,000 (36%) were called active. About 18% were inconclusive and are not listed. No stated cut-off is given here; in the data, active means normalized growth mostly below about 0.91 (no sharp cut-off); inconclusive means no clear call, values can overlap the other calls; inactive means mostly above about 0.92. Some of the results follow.
Possible outcomes: true for active, false for inactive

INSERT INTO results (molecule, class_label) VALUES
  ('NCC(=O)c1ccccc1', 'false'),
  ('CC(C)=CCc1c2c(c3occ(-c4ccc(O)c(O)c4)c(=O)c3c1O)C=CC(C)(C)O2', 'true'),
  ('C[n+]1ccccc1/C=N/O', 'false'),
  ('CCC(C)[C@H]1O[C@]2(C=C[C@@H]1C)C[C@@H]1C[C@@H](C/C=C(\C)[C@@H](OC3C[C@H](OC)C(O[C@H]4C[C@H](OC)[C@@H](O)[C@H](C)O4)[C@H](C)O3)[C@@H](C)/C=C/C=C3\CO[C@@H]4[C@H](O)C(C)=C[C@@H](C(=O)O1)[C@]34O)O2 (stereo partly drawn)', 'true'),
  ('NC(=O)NC(=O)Cc1ccccc1', 'false'),
  ('CO[C@H]1CC(O[C@@H]2/C(C)=C/C[C@@H]3C[C@@H](C[C@]4(CC[C@H](C)[C@@H](C5CCCCC5)O4)O3)OC(=O)[C@@H]3C=C(C)/C(=N\O)[C@H]4OC/C(=C\C=C\[C@@H]2C)[C@]43O)O[C@@H](C)C1O (stereo partly drawn)', 'false'),
  ('CC(C)CC1NC(=O)CNC1=O (stereo not drawn)', 'false'),
  ('C=C(C)C1CCC(C)(O)C2CC3OC3(C)C2C1 (stereo not drawn)', 'false'),
  ('CCN(CC)CCOC(=O)C1(C2CCCCC2)CCCCC1', 'false'),
  ('CC[N+](C)(C)c1cccc(O)c1', 'false'),
  ('O=C(OCc1ccccc1)c1ccccc1', 'false'),
  ('Oc1cccc(O)c1', 'false'),
  ('CN(C)CCCN1c2ccccc2Sc2ccc(Cl)cc21', 'true'),
  ('NS(=O)(=O)c1cc2c(cc1Cl)NC(CSCc1ccccc1)=NS2(=O)=O', 'false'),
  ('CCCc1c(OCCCCc2nn[nH]n2)ccc(C(C)=O)c1O', 'false'),
  ('C=C(C)C1(O)OC(=O)C=C1OC (stereo not drawn)', 'false'),
  ('CN[C@@H]1[C@H](O)[C@H](NC)[C@H]2O[C@@]3(O)C(=O)C[C@@H](C)O[C@H]3O[C@@H]2[C@H]1O', 'false'),
  ('CCN(CC)CCOC(=O)C(c1ccccc1)C1CCCCC1 (stereo not drawn)', 'false'),
  ('O=C1NC(O)=NC1(c1ccccc1)c1ccccc1', 'false'),
  ('Cc1ccc2c(c1)C1(C)CCCC(C)(C(=O)O)C1CC2 (stereo not drawn)', 'false'),
  ('COc1ccc(C2Sc3ccccc3N(CCN(C)C)C(=O)C2OC(C)=O)cc1 (stereo not drawn)', 'false'),
  ('CC(C)CCCC(C)[C@H]1CCC2C3C(=O)C=C4C[C@@H](O)CC[C@]4(C)C3CC[C@@]21C (stereo partly drawn)', 'false'),
  ('CN(C)CCCN1c2ccccc2CCc2ccc(Cl)cc21', 'true');

* * *

test: chemical genetic growth profiling, strain panel (AID 1159580);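 further: tested at 20 µM; growth read once vehicle control cultures reached saturation at 30 °C; 1 = growth at the plate median or of vehicle wells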; conditions: S. cerevisiae deletion strains, growth OD, locus YFR010W, strain ubp6, stronger effect = lower value
About 2,000 (36%) of roughly 5,500 compounds were called active. About 18% were inconclusive and are not listed. Some of the results follow.
# reported normalized growth; entries follow
test-readout: normalized growth

INSERT INTO measurements (compound, test_readout, observed_result) VALUES
  ('OC[C@H]1O[C@@H](O[C@@H]2[C@@H](CO)O[C@](O)(CO)[C@H]2O)[C@H](O)[C@@H](O)[C@H]1O', 'normalized growth', '1.02 (inactive)'),
  ('CC(C)=CCc1c2c(c3occ(-c4ccc(O)c(O)c4)c(=O)c3c1O)C=CC(C)(C)O2', 'normalized growth', '0.946 (inactive)'),
  ('O=C(O)c1ccc(S(=O)(=O)N(Cl)Cl)cc1', 'normalized growth', '0.959 (inactive)'),
  ('CC(C)CCCC(C)[C@H]1CCC2C3C(=O)C=C4C[C@@H](O)CC[C@]4(C)C3CC[C@@]21C (stereo not given in full)', 'normalized growth', '1.02 (inactive)'),
  ('CC(C)NCC(O)COc1ccc(COCCOC(C)C)cc1 (stereo not given)', 'normalized growth', '1.03 (inactive)'),
  ('O=C(O)c1ccccc1', 'normalized growth', '0.958 (inactive)'),
  ('O=C(NCO)c1cccnc1', 'normalized growth', '1.01 (inactive)'),
  ('CC(C)=CCc1c2c(c3occ(-c4ccc(O)cc4)c(=O)c3c1O)C=CC(C)(C)O2', 'normalized growth', '0.895 (active)'),
  ('CCC(C)C(=O)OC1[C@@H]2CC3=C4CC(=O)O[C@@H](c5ccoc5)[C@]4(C)CCC3[C@@](C)(C2=O)[C@@H](CC(=O)OC)C1(C)C (stereo not given in full)', 'normalized growth', '1.02 (inactive)'),
  ('Oc1c(Cl)cc(Cl)cc1Sc1cc(Cl)cc(Cl)c1O', 'normalized growth', '0.0679 (active)');
